target: Cyclin-dependent kinase 2 (Homo sapiens) (UniProt P24941); conditions: Compound concentration 20.0 uM, Protein concentration 2.0 uM, Result type QC Liability
Description: Thermal Shift Assay. Domain: start/stop: M1-L298
Please mark true (1) if the recorded ΔTm is equal to or greater than 0.5 °C, and false (0) if it falls below.

API: above_or_equal(metric=ΔTm, cutoff=0.5 °C) for item `CCCCc1oc2ccccc2c1C(=O)c1cc(I)c(OCCN(CC)CC)c(I)c1`
false (0)

---

biological target: Glycogen synthase kinase-3 beta (Homo sapiens); details: Compound concentration 20.0 uM, Protein concentration 2.0 uM, Result type QC Liability
Description: Thermal Shift Assay. Domain: start/stop: M26-R383
Observable: ΔTm (°C)
Numbers only, in °C.

Answered examples (5):
Measured ΔTm of `Cn1cc(Nc2nccc(N3CC4CCC(C3)N4C(=O)[C@@H]3CC3(F)F)n2)cn1` : 0.6

Measured ΔTm of `CO[C@H]1CC[C@H](N(c2cc(F)c(Oc3ncc(Cn4nccn4)cc3C(F)(F)F)cc2C(=O)O)C(=O)[C@H]2CC[C@H](C)CC2)CC1` : -1.43

Measured ΔTm of `Cn1ccc(Cn2cnc(-c3ccc(F)cc3)c2-c2ccnc3[nH]ccc23)n1` : -0.53

Measured ΔTm of `COc1cc(-c2cn[nH]c2)ccc1C(=O)Nc1ccc2c(c1)CCNCC2` : -0.7

Measured ΔTm of CC(=O)c1c(C)c2cnc(Nc3ccc(N4CCN(CCOCCOCCOCCNC(=O)COc5cccc6c5C(=O)N(C5CCC(=O)NC5=O)C6=O)CC4)cn3)nc2n(C2CCCC2)c1=O (centres undefined) : 1.18

Please look at the items below and tell me ΔTm for each one, in order.
1. CC(C)(O)CNC(=O)N1C(=O)N(c2cccc(C(F)(F)F)c2)C2=C(C(=O)CC2)[C@@H]1c1ccc(C#N)cc1
2. CC[C@@H](Nc1c(C#N)c(-c2ccc(-c3cccc(C)c3F)cc2)nc2cnccc12)C(=O)O
3. Cc1cc(C)nc(Nc2ncc(C(=O)NCCc3c(C)[nH]c4ccccc34)cn2)c1

1: -0.62; 2: 0.06; 3: -2.26

Please look at the items below and tell me ΔTm for each one, in order.
1. Cc1cc(SCc2sc(-c3ccc(C(F)(F)F)cc3)nc2C)ccc1OCC(=O)O
2. CN1CC(=O)N(C)c2cnc(Nc3ccc(NC(=O)Nc4cccc(C(=O)O)c4)cc3)nc21
3. CC(=O)Nc1c(F)cc(C(=O)N[C@H]2CC[C@H](O)CC2)cc1O[C@@H](C)c1ccccc1

1: -1.11; 2: 1.43; 3: -0.82

Please look at the items below and tell me ΔTm for each one, in order.
1. CC(C)(C)c1cc(NC(=O)c2csc(Nc3ccc(Cl)cc3)n2)no1
2. CNC(=O)c1c[nH]c2ccc(Nc3nccc(-c4ccccn4)n3)cc12
3. CN(C)C/C=C/C(=O)Nc1ccc(C(=O)Nc2cccc(Nc3ncc(Cl)c(-c4c[nH]c5ccccc45)n3)c2)cc1

[-2.8, 2.67, 12.9]

---

molecular target: Mitogen-activated protein kinase 1 (Homo sapiens); details: Compound concentration 20.0 uM, Protein concentration 2.0 uM, Result type QC Liability
Observable: ΔTm (°C)
Answers are plain numbers, in °C.

Tested on Mitogen-activated protein kinase 1 (Homo sapiens): `Oc1c(CN2CCCC2)cc(COCc2ccccc2)c2cccnc12` . Observed ΔTm: 0.33

Please look at the items below and tell me ΔTm for each one, in order.
1. CC1(C)Cc2nc(C3CCCC3)c([C@@H](F)c3ccc(C(F)(F)F)cc3)c(C3CCCCC3)c2[C@@H](O)C1
2. Cc1nc(-c2ccc(C(F)(F)F)cc2)sc1C(=O)NCc1ccc(OC(C)(C)C(=O)O)cc1

1. 0.06
2. 0.34

Please look at the items below and tell me ΔTm for each one, in order.
1. Cc1cc2c(ncn2C2(C)CN(C(=O)c3ccn(CC4CCN([C@H]5C=CCCCC5)CC4)c3)C2)c(N)n1
2. Cn1cnc(Cn2ccc3ccc(CNCc4[nH]c5ccccc5c4[C@@H]4NC(=O)c5ccc(O)cc54)cc32)c1

1: 0.62; 2: 0.02

Please look at the items below and tell me ΔTm for each one, in order.
1. CC(C)c1cnc(NC(=O)Cc2ccccc2)s1
2. COc1cc(Nc2cnc(C#N)c(O[C@H](C)CN(C)C)n2)ncc1-c1cnn(C)c1
3. CN(CCCCCCC1=C(c2cc(F)cc(F)c2)CCCc2cc(O)ccc21)CCCCS(=O)(=O)CCCC(F)(F)F
4. CC1(C)Oc2ncnc(N)c2N=C1c1ccc([C@H]2CC[C@H](CC(=O)O)CC2)cc1

1: 0.91; 2: 0.5; 3: -9.1; 4: 0.18

Please look at the items below and tell me ΔTm for each one, in order.
1. NCc1ccc(OCCCc2sc(-c3ccc4c(c3)/C(=N/Nc3nc5ccccc5s3)CCC4)nc2C(=O)O)cc1
2. CN(c1ccc(C(F)(F)F)cc1)S(=O)(=O)c1ccc(C(=O)Nc2nc(-c3ccccn3)cs2)cc1
3. Cc1cc(OC2CCS(=O)(=O)CC2)cc(C)c1-c1cccc(COc2ccc(CCC(=O)O)c(F)c2)c1

1. -0.02
2. 1.92
3. -0.4

Please look at the items below and tell me ΔTm for each one, in order.
1. COc1ccccc1[C@@H]1CNCCC12CCN(C(=O)[C@](OC)(c1ccccc1)C(F)(F)F)CC2
2. Cc1cc(C2CCCNC2)ccc1Nc1ncc(Br)c(NCc2cccc3c2C(C)(C)C(=O)N3)n1 (configuration not stated)
3. O=C(O)CCCc1cc2cc(Cl)ccc2n1S(=O)(=O)c1ccc2ncsc2c1
4. O=C1CCCc2[nH]c(-c3ccnc(NCC4CC4)c3)c(Nc3ccccc3)c21
5. CC(C)(C[C@H]1CN(S(=O)(=O)c2cccc(C(F)(F)F)c2)c2cc(-c3cc(F)cc(OC(F)F)c3)ccc2O1)C(=O)O
6. Cn1cc(Nc2nccc(N3CC4CCC(C3)N4C(=O)[C@@H]3CC3(F)F)n2)cn1

-0.22
2.1
0.26
-0.73
-6.9
0.56

Please look at the items below and tell me ΔTm for each one, in order.
1. O=C(Nc1ccccc1C(=O)O)c1cc(S(=O)(=O)c2ccccc2)ccc1Cl
2. COc1cc2nc(C)nc(N[C@H](C)c3cc(N)cc(C(F)(F)F)c3)c2cc1O[C@H]1CCOC1

1: 0.86; 2: 0.04

Please look at the items below and tell me ΔTm for each one, in order.
1. Cc1cn([C@@H](C)CC#N)c(=O)c2cc(Cn3nc(C(F)F)cc3Cl)nn12
2. Cc1ccc(-c2cn3nc(C(=O)NC4(c5ccc(F)cc5)CN(C)C4)c(C(C)C)c3c(=O)[nH]2)cc1C
3. CN(C)C(=O)Cn1cc(-c2nc(C3(c4ccc(-c5cnc(N)nc5)cc4)CC3)no2)cn1
4. Cc1cnc(-c2cnc(NCCNc3ccc(C#N)cn3)nc2-c2ccc(Cl)cc2Cl)[nH]1
5. CC(C)Oc1ccc(Cc2ccc(NC3=NCCN3)cc2)cc1

[0.18, 0.08, 0.16, 1.17, -0.5]

Please look at the items below and tell me ΔTm for each one, in order.
1. C[C@H](CCC(=O)O)[C@H]1CC[C@H]2[C@@H]3CC[C@@H]4C[C@H](O)CC[C@]4(C)[C@H]3C[C@H](O)[C@]12C
2. O=c1[nH]c(CS[C@H]2CC[C@H](O)CC2)nc2cc(OCC3CC3)cc(F)c12
3. O=C(Cc1ccccc1)Nc1nnc(N2C[C@H]3C[C@@H]2CN3c2cccnn2)s1
4. COc1cc(-c2cc3ncccc3c(O[C@@H](C)[C@H]3CNC(=O)C3)n2)cc(OC)c1OC
5. CN1C(=O)Cc2ccc(-c3ccc(C[C@@H](C#N)NC(=O)[C@H]4N[C@@H]5CC[C@H]4C5)c(F)c3)cc21
6. O=C(O)Cc1cc(I)c(Oc2ccc(O)c(I)c2)c(I)c1

0.2
0.46
0.33
0.06
0.5
-1.09

---

Provide the reported ΔTm of each item.
target: Casein kinase I isoform delta (Homo sapiens) (UniProt P48730); settings: Compound concentration 20.0 uM, Protein concentration 2.0 uM, Result type QC Liability
Sequence (P48730 whole entry, looked up, canonical isoform): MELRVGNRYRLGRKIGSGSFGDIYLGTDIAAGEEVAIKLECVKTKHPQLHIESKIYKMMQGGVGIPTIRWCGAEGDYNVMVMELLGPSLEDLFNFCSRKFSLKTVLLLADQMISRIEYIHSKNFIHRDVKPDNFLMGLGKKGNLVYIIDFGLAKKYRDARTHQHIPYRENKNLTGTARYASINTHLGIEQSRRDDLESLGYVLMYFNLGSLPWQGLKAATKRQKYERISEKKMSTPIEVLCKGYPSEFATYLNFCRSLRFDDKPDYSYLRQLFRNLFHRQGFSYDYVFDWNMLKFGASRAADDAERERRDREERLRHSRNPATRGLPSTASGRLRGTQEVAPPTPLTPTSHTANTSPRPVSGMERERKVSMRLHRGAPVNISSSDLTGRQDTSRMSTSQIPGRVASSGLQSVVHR
Description: Thermal Shift Assay. Domain: start/stop: M1-K294
Number first, unit second.

Tested on Casein kinase I isoform delta (Homo sapiens) (UniProt P48730): CC(C)S(=O)(=O)c1ccccc1Nc1nc(N[C@@H]2CCCN(CCCCCCCNC(=O)COc3cccc4c3C(=O)N(C3CCC(=O)NC3=O)C4=O)C2)ncc1Cl (stereo partly drawn) . Observed ΔTm: 3.26 °C

Please look at the items below and tell me ΔTm for each one, in order.
1. CCCc1c(OCCCOc2ccc(OCC(=O)O)cc2)ccc(C(C)=O)c1O
2. CCc1c(-c2ccc3[nH]ncc3c2)cnc(N)c1-c1ccc(O)cc1
3. CC(C)c1cnn2c(NCc3ccccc3)cc(NCCCCCCN)nc12
4. CC(C)(O)CNC(=O)N1C(=O)N(c2cccc(C(F)(F)F)c2)C2=C(C(=O)CC2)[C@H]1c1ccc(C#N)cc1
5. COc1cc(CN(CCN)C(=O)N[C@@H](C)c2ccccc2)ccc1OCc1ccccc1

1.18 °C
1.28 °C
2.94 °C
0.12 °C
0.16 °C
